The measured values listed here are drawn from patent US20240374591A1.

# subject of test: AR in VCaP cells (Homo sapiens, UniProt P10275)
# Construct: endogenous in cells; host or cells: VCaP cells
# Sequence (P10275 whole entry): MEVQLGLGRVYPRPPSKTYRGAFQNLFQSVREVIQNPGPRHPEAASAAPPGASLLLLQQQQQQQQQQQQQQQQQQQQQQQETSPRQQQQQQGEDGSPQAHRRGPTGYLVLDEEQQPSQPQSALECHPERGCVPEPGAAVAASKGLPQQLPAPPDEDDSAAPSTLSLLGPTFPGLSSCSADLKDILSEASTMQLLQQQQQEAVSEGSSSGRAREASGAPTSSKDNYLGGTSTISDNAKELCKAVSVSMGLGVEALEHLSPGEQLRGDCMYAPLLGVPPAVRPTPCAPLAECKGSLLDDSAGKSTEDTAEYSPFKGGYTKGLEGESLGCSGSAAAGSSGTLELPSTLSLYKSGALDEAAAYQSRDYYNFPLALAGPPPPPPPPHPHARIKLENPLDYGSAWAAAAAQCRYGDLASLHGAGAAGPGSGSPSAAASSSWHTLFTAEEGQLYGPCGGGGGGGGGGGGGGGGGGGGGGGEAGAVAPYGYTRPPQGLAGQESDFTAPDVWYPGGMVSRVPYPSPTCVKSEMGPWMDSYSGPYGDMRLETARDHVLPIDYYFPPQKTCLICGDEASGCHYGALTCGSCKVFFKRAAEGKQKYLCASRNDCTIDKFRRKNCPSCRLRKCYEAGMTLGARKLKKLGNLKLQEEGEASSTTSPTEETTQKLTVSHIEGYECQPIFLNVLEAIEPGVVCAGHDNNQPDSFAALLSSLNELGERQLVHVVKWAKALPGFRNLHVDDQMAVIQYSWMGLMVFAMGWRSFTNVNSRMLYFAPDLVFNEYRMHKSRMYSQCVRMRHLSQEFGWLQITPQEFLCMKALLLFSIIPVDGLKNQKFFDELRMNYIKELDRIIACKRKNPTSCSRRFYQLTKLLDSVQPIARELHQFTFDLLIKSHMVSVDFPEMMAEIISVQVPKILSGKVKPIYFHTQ
# protocol: VCAP AR Degradation Assay (AR ELISA, 24 h)
# Type: cell-based
# assay context: lowest measured AR level normalized to DMSO control, top concentration 5 μM, read-out: Y
Counter-ions that a name gives are not always drawn.
// remaining activity at up to 5 µM lookup, one value per entry

The examples below pair each entry with its known result.
C[C@@H]1CN(CCO[C@H]2CC[C@H](N3C(=S)N(c4ccc(C#N)c(C(F)(F)F)c4)C(=O)C3(C)C)CC2)C[C@H](C)N1CCC(=O)Nc1ccc(N2CCC(=O)NC2=O)nc1 [Cmpd 9]	30 to 70%
C[C@@H]1C[C@H](OCCO[C@H]2CC[C@H](N3C(=S)N(c4cnc(C#N)c(C(F)(F)F)c4)C(=O)C3(C)C)CC2)C[C@H](C)N1CC(=O)Nc1ccc(C2CCC(=O)NC2=O)nc1 (stereo partly shown) [Cmpd 30]	0 to 20%
C[C@@H]1CN(CCC[C@H]2CC[C@H](N3C(=S)N(c4ccc(C#N)c(C(F)(F)F)c4)C(=O)C3(C)C)CC2)C[C@H](C)N1CC(=O)Nc1ccc(C2CCC(=O)NC2=O)nc1 (stereo partly shown) [Cmpd 3]	30 to 70%
C[C@@H]1CN(CCCC[C@H]2CC[C@H](N3C(=S)N(c4ccc(C#N)c(C(F)(F)F)c4)C(=O)C3(C)C)CC2)C[C@H](C)N1CC(=O)Nc1ccc(N2CCC(=O)NC2=O)nc1 [Cmpd 15]	30 to 70%
CC1(C)C(=O)N(c2cnc(C#N)c(C(F)(F)F)c2)C(=S)N1[C@H]1CC[C@H](OCCCN2CCN(CC(=O)Nc3ccc(C4CCC(=O)NC4=O)nc3)[C@@H](C(F)(F)F)C2)CC1 (stereo partly shown) [Cmpd 23]	0 to 20%
C[C@@H]1CN(CCC[C@H]2CC[C@H](N3C(=S)N(c4cnc(C#N)c(C(F)(F)F)c4)C(=O)C3(C)C)CC2)C[C@H](C)N1CC(=O)Nc1ccc(C2CCC(=O)NC2=O)nc1 (stereo partly shown) [Cmpd 8, hydrochloride]	20 to 30%
C[C@@H]1CN(CCCO[C@H]2CC[C@H](N3C(=S)N(c4ccc(C#N)c(C(F)(F)F)c4)C(=O)C3(C)C)CC2)C[C@H](C)N1CC(=O)Nc1ccc(C2CCC(=O)NC2=O)nc1 (stereo partly shown) [Cmpd 5, hydrochloride]	20 to 30%
C[C@@H]1CN(CCC[C@H]2CC[C@H](N3C(=S)N(c4ccc(C#N)c(Cl)c4)C(=O)C3(C)C)CC2)C[C@H](C)N1CC(=O)Nc1ccc(C2CCC(=O)NC2=O)nc1 (stereo partly shown) [Cmpd 10, hydrochloride]	30 to 70%

**Q:** Endpoint output: remaining activity at up to 5 µM of CC1(C)C(=O)N(c2ccc(C#N)c(C(F)(F)F)c2)C(=S)N1[C@H]1CC[C@H](OCCCN2CCN(CC(=O)Nc3ccc(C4CCC(=O)NC4=O)nc3)[C@@H](C(F)(F)F)C2)CC1 (stereo partly shown) [Cmpd 25] . Value?
**A:** 20 to 30%

**Q:** Repeat with C[C@@H]1C[C@H](OCCO[C@H]2CC[C@H](N3C(=S)N(c4ccc(C#N)c(C(F)(F)F)c4)C(=O)C3(C)C)CC2)C[C@H](C)N1CC(=O)Nc1ccc(C2CCC(=O)NC2=O)nc1 (stereo partly shown) [Cmpd 29]
**A:** 20 to 30%
